Measured pIC50 by item
# TARGET SYSTEM: NACHT, LRR and PYD domains-containing protein 3 (Mus musculus, UniProt Q8R4B8)
# Sequence (Q8R4B8 whole entry, the tested form may be a part): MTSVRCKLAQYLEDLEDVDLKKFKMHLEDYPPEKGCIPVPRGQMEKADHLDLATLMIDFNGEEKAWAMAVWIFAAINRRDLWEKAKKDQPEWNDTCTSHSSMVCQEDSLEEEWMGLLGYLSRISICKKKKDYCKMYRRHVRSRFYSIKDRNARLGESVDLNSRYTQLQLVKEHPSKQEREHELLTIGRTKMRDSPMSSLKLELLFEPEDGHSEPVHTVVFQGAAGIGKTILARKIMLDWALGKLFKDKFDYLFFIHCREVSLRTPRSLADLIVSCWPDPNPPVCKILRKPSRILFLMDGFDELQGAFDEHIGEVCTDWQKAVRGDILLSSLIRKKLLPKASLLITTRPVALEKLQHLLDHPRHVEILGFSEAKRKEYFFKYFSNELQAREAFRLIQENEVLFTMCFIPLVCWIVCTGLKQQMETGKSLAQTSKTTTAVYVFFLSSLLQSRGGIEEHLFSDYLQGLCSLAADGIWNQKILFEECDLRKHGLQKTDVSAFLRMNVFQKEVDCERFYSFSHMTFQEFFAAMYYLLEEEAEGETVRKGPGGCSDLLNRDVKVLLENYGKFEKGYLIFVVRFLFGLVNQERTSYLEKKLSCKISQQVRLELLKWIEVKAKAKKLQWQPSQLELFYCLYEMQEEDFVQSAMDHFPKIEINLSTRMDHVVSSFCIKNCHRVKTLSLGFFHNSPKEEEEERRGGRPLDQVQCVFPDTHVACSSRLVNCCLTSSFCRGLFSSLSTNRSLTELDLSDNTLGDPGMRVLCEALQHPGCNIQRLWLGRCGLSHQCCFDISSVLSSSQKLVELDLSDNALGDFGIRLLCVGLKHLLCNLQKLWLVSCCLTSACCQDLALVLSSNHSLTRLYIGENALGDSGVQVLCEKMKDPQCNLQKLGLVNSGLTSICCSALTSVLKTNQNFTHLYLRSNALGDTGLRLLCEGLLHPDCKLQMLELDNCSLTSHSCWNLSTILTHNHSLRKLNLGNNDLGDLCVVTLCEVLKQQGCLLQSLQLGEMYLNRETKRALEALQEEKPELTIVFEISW
# METHOD SUMMARY: Inhibition of NLRP3 inflammasome activation in mouse BMDM cells assessed as reduction in IL-1beta release by ELISA
pIC50: −log10 of the molar value.

{"columns": ["COMPOUND", "pIC50"],
 "data": [
  ["O=c1c(O)c(-c2ccc(O)cc2)oc2cc(O)cc(O)c12 [KAEMPFEROL]", "< 4.00"],
  ["COc1ccc(-c2cc(=O)c3c(O)cc4c(c3o2)C=CC(C)(C)O4)cc1", "< 4.00"],
  ["COc1cc(-c2cc(=O)c3c(O)cc4c(c3o2)C=CC(C)(C)O4)ccc1O", "< 4.00"]
]}
